- METHOD SUMMARY: qHTS Assay for Lipid Storage Modulators in Drosophila S3 Cells
- STUDY CONDITIONS: BODIPY lipid droplet fluorescence, 18-24 h, cells fed with added oleic acid; series mostly up to 46.1 µM
Among all 320,000 compounds or so, about 2,100 (0.66%) were called active. Not shown: some 53% with an inconclusive outcome. The call rests on the fitted dose curve; in most records, active means well fitted inhibition curve with a large enough effect in the signal ratio, with a control signal flat (not every such curve was filed as active); inconclusive means small, poorly fitted or top-dose-only effect, or effect the other way, or a change in a side signal; inactive means flat fitted curve, though single readings scatter; the % refers to the signal ratio. This is one part of a sample in which actives are shown more often than they occur.
Result category, one only: 1 (active), -1 (inactive)

As a guide, the following entries are already answered.
COMPOUND | LABEL VALUE
COC(=O)CNC(=O)c1cc(OC)cc(OC)c1 | -1
O=C(O)CNS(=O)(=O)Cc1ccccc1 | -1
C/C(=N\O)C1CC(CC(=O)O)C1(C)C (centres undefined) | 1
CC(C)NC(=O)CN(Cc1ccccc1)S(=O)(=O)c1ccccc1 | -1

Ask | Which outcome was entered for the compound COc1cc(NC2CCCCC2O)c2nc(-c3ccc(Cl)cc3)ccc2c1 (centres undefined) in this test?
Reply | 1

Ask | Which outcome was entered for the compound COc1ccc(OCC(=O)OCC(=O)NC2CCCCC2C)cc1 (centres undefined) in this test?
Reply | -1

Ask | Which outcome was entered for the compound COc1cc(OC)cc(C(=O)NCC(=O)OCC(=O)c2cc(OC)ccc2OC)c1 in this test?
Reply | 1

Ask | Which outcome was entered for the compound COc1ccc(-c2nc(SCC(=O)NC3CCCCC3)n[nH]2)cc1 in this test?
Reply | -1

Ask | Which outcome was entered for the compound Cn1c(SCC(=O)N2CCc3ccccc3C2)nnc1-c1ccncc1 in this test?
Reply | -1

Ask | Which outcome was entered for the compound Cc1cccc(NC(=O)C2C(c3ccccc3)C2(Cl)Cl)c1C (centres undefined) in this test?
Reply | -1

Ask | Which outcome was entered for the compound COc1ccc(-c2nc(SC(C)C(=O)NC3CC3)n[nH]2)cc1 (centres undefined) in this test?
Reply | 1

Ask | Which outcome was entered for the compound CCc1cccc(CC)c1-n1c(SCC(=O)N2CCc3ccccc3C2)nnc1-c1cccnc1 in this test?
Reply | 1

---

- METHOD SUMMARY: qHTS Assay for Lipid Storage Modulators in Drosophila S3 Cells
- STUDY CONDITIONS: BODIPY lipid droplet fluorescence, 18-24 h, cells fed with added oleic acid; series mostly up to 46.1 µM
The campaign covered roughly 320,000 compounds. About 2,100 (0.66%) were called active. Inconclusive results (about 53%) are left out. The call rests on the fitted dose curve; in most records, active means well fitted inhibition curve with a large enough effect in the signal ratio, with a control signal flat (not every such curve was filed as active); inconclusive means small, poorly fitted or top-dose-only effect, or effect the other way, or a change in a side signal; inactive means flat fitted curve, though single readings scatter; the % refers to the signal ratio. This is one part of a sample in which actives are shown more often than they occur.
Result category, one only: label 1 = active, label 0 = inactive

As a guide, the following entries are already answered.
COMPOUND | LABEL VALUE
O=C(O)c1ccccc1C(=O)N1CC=C(c2ccccc2)CC1 | label 0
CCCn1c(=O)c2sccc2n2c(CCCC(=O)NC3CCN(Cc4ccccc4)CC3)nnc12 | label 0
COCCCn1c(=O)c2sccc2n2c(CCCC(=O)NCC3CCCO3)nnc12 (configuration not stated) | label 1
COc1cccc2c1OC1(C)CC2NC(=O)N1c1cccc(C(=O)N2CCN(c3ccccc3)CC2)c1 (configuration not stated) | label 0
O=C(CCCn1c(=O)c2sccc2n(CC(=O)NCC2CCCO2)c1=O)NCc1ccco1 (configuration not stated) | label 0
Cc1ccc(/C=C/S(=O)(=O)NCC(=O)OCC(=O)N2CC(=O)Nc3ccccc32)cc1 | label 0
Cc1ccsc1C(=O)Nc1ccc2c(c1)OCCO2 | label 0
COc1ccc(Cc2nc3ccc(C(=O)NC(C)c4cn(C)nc4C)cc3o2)cc1 (configuration not stated) | label 0
CCCCC1C2C(=O)N(c3ccccc3)C(=O)C2ON1c1ccccc1 (configuration not stated) | label 0
C=CCn1c(SCC(=O)NCc2ccc3c(c2)OCO3)nnc1C1CCCCC1 | label 0

Ask | Which outcome was entered for the compound O=c1ncn(-c2ccccc2C(F)(F)F)c2ncccc12 in this test?
Reply | label 0

Ask | Which outcome was entered for the compound Cn1c(=O)c2sccc2n2c(CCCC(=O)NCc3ccco3)nnc12 in this test?
Reply | label 0

Ask | Which outcome was entered for the compound CC(C)Cc1nnc(NC(=O)C2=COCCO2)s1 in this test?
Reply | label 0

Ask | Which outcome was entered for the compound O=C(c1cccc([N+](=O)[O-])c1)N(c1ccccn1)c1ccccn1 in this test?
Reply | label 0

Ask | Which outcome was entered for the compound Cc1ccccc1NC(=O)c1ccc2ccccc2c1 in this test?
Reply | label 0

Ask | Which outcome was entered for the compound C=C(C)C(=O)N1CC2(CC(c3cccc(NC(=O)CC(c4ccccc4)c4ccccc4)c3)=NO2)C[C@H]1C(N)=O (some centres not stated) in this test?
Reply | label 0

---

- METHOD SUMMARY: qHTS Assay for Lipid Storage Modulators in Drosophila S3 Cells;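 on cell number change: cells counted by Cell Tracker Red CMTPX staining in the red channel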
- STUDY CONDITIONS: BODIPY lipid droplet fluorescence, 18-24 h, cells fed with added oleic acid; measured here: cell count max response
In all, about 320,000 compounds went through this assay and about 2,100 (0.66%) were called active. Another 53% or so got no clear call; they are omitted. For the sample, actives were picked, then their nearest neighbours and some compounds at random.
REPORTED METRIC: cell number change (%)
Hi! Could you send only the number? It should be in %, unit omitted.

Known cell number change results, listed for orientation:
COMPOUND | cell number change / %
CCN(C(=O)COC(=O)/C(=C/c1ccccc1)n1nnnc1C)C1CCCCC1 | -1.15
CCN(C(=O)COC(=O)c1cnc(C)cn1)C1CCCCC1 | 18.1
CCN(C(=O)CCC(=O)N(CC)c1ccccc1)c1ccccc1 | -0.108
Cc1nnnn1/C(=C\c1ccccc1)C(=O)OCC(=O)N1CC2(C)CC1CC(C)(C)C2 (stereo unspecified) | -4.4
COc1cc(OC)cc(C(=O)OCC(=O)Nc2sccc2C(N)=O)c1 | 2.18

Now take the following compound into account.
Ask | Report cell number change for Cn1nc(-c2ccccc2)c(CO)c1Oc1cccc(C(F)(F)F)c1 please.
Reply | 9.06

---

- METHOD SUMMARY: qHTS Assay for Lipid Storage Modulators in Drosophila S3 Cells
- STUDY CONDITIONS: BODIPY lipid droplet fluorescence, 18-24 h, cells fed with added oleic acid; series mostly up to 46.1 µM
About 2,100 (0.66%) of roughly 320,000 compounds were called active. About 53% were inconclusive and are not listed. Calls follow the shape of the dose curve; as a rule, active = well fitted inhibition curve with a large enough effect in the signal ratio, with a control signal flat (not every such curve was filed as active); inconclusive = small, poorly fitted or top-dose-only effect, or effect the other way, or a change in a side signal; inactive = flat fitted curve, though single readings scatter; the % refers to the signal ratio. The sample holds actives, similar compounds and a random draw of the others, so the mix is not that of the screen.
Result category, one only: active, inactive

SMILES STRING | LABEL VALUE
O=C(CNc1ccc(Br)cc1)c1ccccc1 | inactive
O=C(COC(=O)c1cc2ccccc2o1)NCc1ccco1 | active
CN(C)CC(=O)Nc1ccc2cn[nH]c2c1 | inactive
CCOc1ccc(-n2c(=O)cc(N3CCN(c4ccc(F)cc4)CC3)[nH]c2=O)cc1 | inactive
CCC(=O)Nc1nn(C)c2nc3c(C)cccc3cc12 | inactive

Ask | Which outcome was entered for the compound Cn1c(=O)c2c(nc(CN3CCN(C(=O)c4ccco4)CC3)n2Cc2ccccc2)n(C)c1=O in this test?
Reply | inactive

Ask | Which outcome was entered for the compound C=CCn1c(=O)c(C(=O)Nc2ccccc2C)c(O)c2ccccc21 in this test?
Reply | active

Ask | Which outcome was entered for the compound CCn1cc(C(=O)NCC(OC)OC)c(=O)c2cc(S(=O)(=O)N3CCOCC3)ccc21 in this test?
Reply | inactive

Ask | Which outcome was entered for the compound Cc1ccc(C(=O)C2CCN(S(=O)(=O)c3ccccc3C(=O)O)CC2)cc1 in this test?
Reply | inactive

Ask | Which outcome was entered for the compound CCn1c(=O)c(C(=O)Nc2ccccc2C)c(O)c2ccccc21 in this test?
Reply | inactive

Ask | Which outcome was entered for the compound O=C(COC(=O)COc1ccc(Nc2ccccc2)cc1)NCc1ccco1 in this test?
Reply | inactive

---

Reported cell number change values follow for various compounds
- METHOD SUMMARY: qHTS Assay for Lipid Storage Modulators in Drosophila S3 Cells;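 on cell number change: cells counted by Cell Tracker Red CMTPX staining in the red channel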
- STUDY CONDITIONS: BODIPY lipid droplet fluorescence, 18-24 h, cells fed with added oleic acid; measured here: cell count max response
The campaign covered roughly 320,000 compounds. About 2,100 (0.66%) were called active. About 53% were inconclusive and are not listed. The entries come from a sample that favours actives as a whole.
Hi! Could you send only the number? It should be in %, unit omitted.

Ask | Report cell number change for COc1cc(NC(=O)c2ccccc2)c(OC)cc1NC(C)=O please.
Reply | -0.51

---

- METHOD SUMMARY: qHTS Assay for Lipid Storage Modulators in Drosophila S3 Cells;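 on cell number change: cells counted by Cell Tracker Red CMTPX staining in the red channel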
- STUDY CONDITIONS: BODIPY lipid droplet fluorescence, 18-24 h, cells fed with added oleic acid; measured here: cell count max response
The whole screen tested about 320,000 compounds, of which about 2,100 (0.66%) were called active. Inconclusive results (about 53%) are left out. This is one part of a sample in which actives are shown more often than they occur.
REPORTED METRIC: cell number change (%)
Hi! Could you send only the number? It should be in %, unit omitted.

Known cell number change results, listed for orientation:
MOLECULE | UNIT ANNOTATION | READING
CCOc1ccc(C(=O)NC(C(=O)NCC(c2cccs2)N(C)C)C(C)C)cc1 (stereo unspecified) | % | -5.63
Cc1ccc(C(C)C)c(OCCCN2CCc3ccccc3C2)c1 | % | -26.9
Cc1ccc(OCCCCN2CCc3ccccc3C2)cc1 | % | -8.99
Cc1ccc(C(C)C)c(OCCN2CCc3ccccc3C2)c1 | % | -16.4
O=c1c([N+](=O)[O-])c(O)c2cccc3c2n1CCC3 | % | -0.265

Ask | Report cell number change for COc1ccc(CCN2C(=O)/C(=C\c3ccco3)SC2=S)cc1OC please.
Reply | -20.3

Ask | Report cell number change for Cc1c(C)c2c(OCC(=O)NCc3ccco3)cc3c(c2oc1=O)CCC(C)(C)O3 please.
Reply | 6.15
